Biological target: T1, human CACNG1 nanodisc (Homo sapiens, UniProt Q06432)
T1 construct: made in house
T1 sequence (Q06432 whole entry): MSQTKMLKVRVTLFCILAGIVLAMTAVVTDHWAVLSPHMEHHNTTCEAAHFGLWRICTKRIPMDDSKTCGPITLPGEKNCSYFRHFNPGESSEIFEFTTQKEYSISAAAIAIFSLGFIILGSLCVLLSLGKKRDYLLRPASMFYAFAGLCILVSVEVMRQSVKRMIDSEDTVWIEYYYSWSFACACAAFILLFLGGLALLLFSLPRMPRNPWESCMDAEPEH
Experiment: Biacore binding kinetics of anti-CACNG1 monoclonal antibodies to human CACNG1 nanodisc, antigen capture format
Conditions: 25° C., 1:1 binding model
QUANTITY_NAME: ka (M⁻¹ s⁻¹)
One number for each entry, in M⁻¹ s⁻¹.

// query // returns reported ka for input REGN10715: anti-hCACNG1 antibody, HCVR/LCVR SEQ ID NOs: 18/26, wildtype hIgG1 (antibody, V domains shown, hIgG1) VH: QVQLQQWGAGLLKPSATLSRTCAVYGGSFSGYYWNWIRQSPGKGLEWIGEILHSGRTNYNPSLKSRVTISVDTSKNQFSLKLTSVTAADTAVYYCAGRIAARHGWFDPWGQGTLVTVSS VL: DIQMTQSPSSVSTSVGDRVTISCRASQDIRKWLAWYQQKPGKAPKLLIYATSSLQSGVPSRFSGSGSGTDFTLTISSLQPEDFATYFCQQANSFPFTFGQGTKLEIK
// result 152000
